- Test system: Escherichia coli TOP10;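 further: peptides expressed intracellularly from a pBAD plasmid library in pooled LB shake-flask culture, induced with 0.3% L-arabinose, DNA abundance read by NGS, three biological replicates, DESeq2 with apeglm shrinkage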
- ASSAY PROCEDURE: shrunken log2 fold change of peptide-encoding DNA abundance (4.5 h post-induction vs induction); higher = less antimicrobial activity (less host growth inhibition)
- DETAILS: time post-induction: 4.5 h; library: site-saturation at positions 5, 18, 19, 20
ATTRIBUTE MEASURED: shrunken log2 fold change

// worked examples, shrunken log2 fold change included
RRIRCRPPRLPRPRPRPVCEPRP : 0.0301
RRIRERPPRLPRPRPRPLHDPRP : 0.0501
RRIRNRPPRLPRPRPRPNQAPRP : -0.0207
RRIRDRPPRLPRPRPRPKAGPRP : 0.143
RRIRHRPPRLPRPRPRPNPEPRP : -0.00699
RRIRNRPPRLPRPRPRPDIAPRP : -0.0447
RRIRTRPPRLPRPRPRPGQSPRP : -0.267
RRIRDRPPRLPRPRPRPKDAPRP : -0.018

Note: attention shifts to another entry.
Need shrunken log2 fold change, item RRIRLRPPRLPRPRPRPYDKPRP
-0.951
